Target: PfDHODH (Phe158–Ser569) (Plasmodium falciparum)
Construct: enzyme activity determination of PfDHODH (Phe158–Ser569) and hDHODH (Met30–Arg396); made in house
Sequence (Q08210 158-569): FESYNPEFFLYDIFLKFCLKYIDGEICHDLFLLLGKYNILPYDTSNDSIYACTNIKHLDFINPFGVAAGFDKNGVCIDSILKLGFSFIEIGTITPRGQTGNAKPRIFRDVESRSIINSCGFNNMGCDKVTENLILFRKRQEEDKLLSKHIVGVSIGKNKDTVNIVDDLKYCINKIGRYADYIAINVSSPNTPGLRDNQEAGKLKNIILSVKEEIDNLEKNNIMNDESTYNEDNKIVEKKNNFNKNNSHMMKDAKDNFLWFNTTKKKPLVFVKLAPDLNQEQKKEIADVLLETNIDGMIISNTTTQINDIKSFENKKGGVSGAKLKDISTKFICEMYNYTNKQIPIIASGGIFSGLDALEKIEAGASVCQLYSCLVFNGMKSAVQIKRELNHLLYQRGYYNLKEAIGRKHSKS
Assay: In vitro enzyme assay, PfDHODH (DCIP reduction)
Assay type: biochemical
Conditions: in vitro enzyme assay; read-out: IC50 (μM) PfDHODH
measuredEndpoint: IC50

Some solved entries appear below for comparison.
CCN1CN(c2ccc3c(c2)CCC3)C2=C(C(=O)CO2)C1=O [Compound 21]: > 10 µM
CCNC(=O)C1=C(Nc2ccccc2)OCC1=O [Compound 12]: > 10 µM
CCCN1CN(c2ccc3ccccc3c2)C2=C(C(=O)CO2)C1=O [Compound 24]: 12 µM

Inquiry: So what does the record say about IC50 for CCNC(=O)C1=C(Nc2ccc3c(c2)CCC3)OCC1=O [Compound 13] ?
Reply text: > 10 µM

* * *

Target: PfDHODH (Phe158–Ser569) (Plasmodium falciparum)
Construct: enzyme activity determination of PfDHODH (Phe158–Ser569) and hDHODH (Met30–Arg396); made in house
Assay: In vitro enzyme assay, PfDHODH (DCIP reduction)
Type: biochemical
measuredEndpoint: IC50 (µM)
Numbers only, in µM.

Inquiry: Which IC50 is reported with PfDHODH (Phe158–Ser569) (Plasmodium falciparum) for this entry: O=C1COC2=C1C(=O)N(C1CC1)CN2c1ccc2ccccc2c1 [Compound 25] ?
Reply text: 5

* * *

Please provide measured melting point for the entries that follow.

Some solved entries appear below for comparison.
O=C1COC(Nc2ccc3ccccc3c2)=C1C(=O)NCC1CC1: 164.8 to 165.3 °C
CCNC(=O)C1=C(Nc2ccc3c(c2)CCC3)OCC1=O: 127.7 to 128.2 °C
CN1CN(c2ccc3ccccc3c2)C2=C(C(=O)CO2)C1=O: 127.9 to 128.5 °C
CCN1CN(c2ccc3c(c2)CCC3)C2=C(C(=O)CO2)C1=O: 128.6 to 129.4 °C
CCNC(=O)C1=C(Nc2ccc3ccccc3c2)OCC1=O: 121.8 to 123 °C
CCNC(=O)C1=C(Nc2ccccc2)OCC1=O: 146.9 to 147.4 °C
CNC(=O)C1=C(Nc2ccc3ccccc3c2)OCC1=O: 126.3 to 126.9 °C
O=C(O)C1=C(Nc2ccc3ccccc3c2)OCC1=O: 164.4 to 165 °C
O=C1COC(Nc2ccc3ccccc3c2)=C1C(=O)NC1CC1: 140.8 to 141.6 °C
O=C1COC2=C1C(=O)N(C1CC1)CN2c1ccc2ccccc2c1: 128.8 to 129.5 °C

Give melting point for each of the items listed below.
1. CCCN1CN(c2ccc3ccccc3c2)C2=C(C(=O)CO2)C1=O
2. CCN1CN(c2ccc3ccccc3c2)C2=C(C(=O)CO2)C1=O
3. NN1CN(c2ccc3ccccc3c2)C2=C(C(=O)CO2)C1=O
4. NNC(=O)C1=C(Nc2ccc3ccccc3c2)OCC1=O

Reply text:
1. 128.6 to 129.7 °C
2. 128.3 to 129 °C
3. 168.4 to 169.2 °C
4. 167.3 to 167.9 °C

* * *

Target: hDHODH (Met30–Arg396) (Homo sapiens)
Construct: enzyme activity determination of PfDHODH (Phe158–Ser569) and hDHODH (Met30–Arg396); made in house
Sequence (Q02127 29-395 limits assumed): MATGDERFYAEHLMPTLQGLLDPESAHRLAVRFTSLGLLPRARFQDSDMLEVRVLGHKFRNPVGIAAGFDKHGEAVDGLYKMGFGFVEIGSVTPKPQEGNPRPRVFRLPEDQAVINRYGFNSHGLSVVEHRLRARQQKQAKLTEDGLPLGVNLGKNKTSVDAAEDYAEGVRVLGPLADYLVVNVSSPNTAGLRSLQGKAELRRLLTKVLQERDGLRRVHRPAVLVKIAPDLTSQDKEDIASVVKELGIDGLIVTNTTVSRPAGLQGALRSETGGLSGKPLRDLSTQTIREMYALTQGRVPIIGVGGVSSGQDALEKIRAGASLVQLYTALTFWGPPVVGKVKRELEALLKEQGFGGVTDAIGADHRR
Experiment: In vitro enzyme assay, hDHODH (DCIP reduction)
Assay type: biochemical
Details: in vitro enzyme assay
measuredEndpoint: IC50

Some solved entries appear below for comparison.
CNC(=O)C1=C(Nc2ccc3ccccc3c2)OCC1=O [Compound 14]: > 10 µM
CCNC(=O)C1=C(Nc2ccccc2)OCC1=O [Compound 12]: 2.4 µM
CN1CN(c2ccc3ccccc3c2)C2=C(C(=O)CO2)C1=O [Compound 22]: > 10 µM
O=C1COC(Nc2ccc3ccccc3c2)=C1C(=O)NCC1CC1 [Compound 19]: > 10 µM

Alright, here's another molecule for you.
Inquiry: So what does the record say about IC50 for NNC(=O)C1=C(Nc2ccc3ccccc3c2)OCC1=O [Compound 20] ?
Reply text: > 10 µM
